- Test system: P. falciparum 3D7 (chloroquine-sensitive)
- Assay procedure: Anti-malarial activity, P. falciparum 3D7 culture, 72 hour, DNA content by flow cytometry
- Type: cell-based
- Study conditions: synchronized ring-stage parasites
So basically: is IC50 under 100 nM? Then 1. Not under? Then -1.

N=C(N)N1CC=C(c2ccc3sc4ccc(C5=CCN(C(=N)N)CC5)cc4c3c2)CC1    1
N=C(N)N1CC[C@@H](Oc2ccc(NC(=O)c3cc(C(=O)Nc4ccc(O[C@@H]5CCN(C(=N)N)C5)c(C(F)(F)F)c4)ncn3)cc2C(F)(F)F)C1    1
CC1(C)c2cc(-c3cccc(CCN)c3)ccc2-c2ccc(-c3cccc(CCN)c3)cc21    -1
O=C(Nc1ccc(SCCNC2=NCCN2)c(C(F)(F)F)c1)Nc1ccc(SCCNC2=NCCN2)c(C(F)(F)F)c1    1
CN(CCCCC(=O)Nc1cc(C(C)(C)C)cc(NC(=O)c2cccc(C(=O)Nc3cc(C(C)(C)C)cc(NC(=O)CCCCN(C)c4ccccn4)c3SCCN)c2)c1SCCN)c1ccccn1    -1

Could you now look at the following compound, please?
Decide: IC50 of "CCn1c2ccc(C3=CCNCC3)cc2c2cc(C3=CCNCC3)ccc21" strictly below 100 nM? -1
